Provenance of the data: patent US20120101110A1

Target: human orexin 1 receptors (Homo sapiens)
Sequence (O43613 1-425): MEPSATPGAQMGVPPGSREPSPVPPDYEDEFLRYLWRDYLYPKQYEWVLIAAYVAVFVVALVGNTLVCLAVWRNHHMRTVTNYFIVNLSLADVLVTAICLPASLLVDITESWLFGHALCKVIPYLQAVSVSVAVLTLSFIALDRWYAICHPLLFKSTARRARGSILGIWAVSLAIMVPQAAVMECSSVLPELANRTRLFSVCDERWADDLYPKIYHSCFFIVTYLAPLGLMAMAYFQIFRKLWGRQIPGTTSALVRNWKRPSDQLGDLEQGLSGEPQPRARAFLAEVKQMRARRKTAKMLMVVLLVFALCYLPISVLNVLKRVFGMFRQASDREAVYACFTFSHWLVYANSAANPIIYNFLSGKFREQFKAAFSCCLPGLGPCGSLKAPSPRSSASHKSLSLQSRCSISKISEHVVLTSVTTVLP
Assay: Calcium accumulation in cells (FLIPR), hOx1R
Details: read-out: FLIPR hOx1R % inhibition value
assay_metric: inhibition at 10 µM (%)
Report the value in % with no unit label.

{"columns": ["structure", "unit_abbrev", "inhibition at 10 µM"],
 "data": [
  ["Cc1cnc(C)c(N2CCC3(CCCN(Cc4c[nH]c5ccccc45)C3=O)CC2)n1", "%", 22],
  ["COCc1cccc(N2CCC3(CCCN(Cc4c[nH]c5ccccc45)C3=O)CC2)n1", "%", 30],
  ["COc1cncc(N2CCC3(CCCN(Cc4c[nH]c5ccccc45)C3=O)CC2)c1", "%", 31],
  ["O=C1N(Cc2c[nH]c3ccccc23)CCCC12CCN(c1ccc(C(F)(F)F)cn1)CC2", "%", 18],
  ["COc1cncc(N2CCC3(CCCN(Cc4cccc5c4OCCO5)C3=O)CC2)n1", "%", 35],
  ["COc1cc(N2CCC3(CCCN(Cc4c[nH]c5ccccc45)C3=O)CC2)ncn1", "%", 20],
  ["Cc1cccnc1N1CCC2(CCCN(Cc3c[nH]c4ccccc34)C2=O)CC1", "%", 36],
  ["Cc1nnc(N2CCC3(CCCN(Cc4c[nH]c5ccccc45)C3=O)CC2)s1", "%", 42]
]}

Summary for this compound, `Cc1ccnc(N2CCC3(CCCC(=O)N3Cc3cccc(-c4nc(C)no4)c3)CC2)n1` : inhibition at 10 µM is 15

// inhibition at 10 µM lookup, compound = `N#Cc1ccnc(N2CCC3(CCCC(=O)N3Cc3cccc4[nH]ccc34)CC2)c1` , result: 26

The reported value for `Cc1ccnc(N2CCC3(CCCC(=O)N3Cc3ccccc3-c3nc(C)no3)CC2)n1` in terms of inhibition at 10 µM is 12

Input `O=C1N(Cc2c[nH]c3ccccc23)CCCC12CCN(c1nccc(Cl)n1)CC2` . Output inhibition at 10 µM: 44

Note to self: inhibition at 10 µM recorded for `COc1nccc(N2CCC3(CCCN(Cc4c[nH]c5ccccc45)C3=O)CC2)n1` was 25

Short answer for `Cc1cncc(N2CCC3(CCCC(=O)N3Cc3c[nH]c4ccccc34)CC2)n1` : inhibition at 10 µM was 14

###

target: human orexin 2 receptors (Homo sapiens, UniProt O43614); test: Radioligand binding assay ([3H]-SB649868 competition), hOx2R; conditions: competition with about 1 nM [3H]-SB649868; CHO or HEK cell membranes expressing human orexin 2 receptor; read-out: binding hOx2R Kd
Sequence (O43614 whole entry): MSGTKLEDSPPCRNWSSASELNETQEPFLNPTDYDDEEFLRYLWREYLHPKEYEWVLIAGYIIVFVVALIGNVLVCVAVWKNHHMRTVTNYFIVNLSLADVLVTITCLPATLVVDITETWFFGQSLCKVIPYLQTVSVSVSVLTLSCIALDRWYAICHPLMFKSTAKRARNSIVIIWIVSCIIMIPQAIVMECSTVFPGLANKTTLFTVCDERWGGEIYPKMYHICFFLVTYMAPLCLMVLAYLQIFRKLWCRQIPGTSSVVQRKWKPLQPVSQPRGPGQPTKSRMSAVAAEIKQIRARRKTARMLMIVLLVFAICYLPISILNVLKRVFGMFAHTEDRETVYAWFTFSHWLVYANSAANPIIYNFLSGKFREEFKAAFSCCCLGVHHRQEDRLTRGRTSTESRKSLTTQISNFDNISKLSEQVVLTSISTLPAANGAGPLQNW
assay_metric: pKd
Lab note — pKd values are minus log10 of concentrations in M.

Consider the worked cases shown below.
{"columns": ["structure", "numeric_result"],
 "data": [
  ["COc1cncc(N2CCC3(CCCC(=O)N3Cc3cccc4[nH]ccc34)CC2)n1", 6.21],
  ["COc1cc(C)nc(N2CCC3(CCCN(Cc4c[nH]c5ccccc45)C3=O)CC2)n1", 7.37],
  ["Cc1ccnc(N2CCC3(CCCN(Cc4cccc(-c5ncc(C)o5)c4)C3=O)CC2)n1", 6.75]
]}

Please fill in: pKd reported for `Cc1cnc(-c2cccc(CN3CCCC4(CCN(c5cccc(C#N)n5)CC4)C3=O)c2)o1` = 6.44

Reported pKd of `Cc1cncc(N2CCC3(CCCC(=O)N3Cc3c[nH]c4ccccc34)CC2)n1` : 6.16

Reported pKd of `Cc1ccnc(N2CCC3(CCCN(Cc4c[nH]c5ccccc45)C3=O)CC2)c1` : 6.50

Entry `COc1cccc(-c2sc(C)nc2CN2CCCC3(CCN(c4nc(C)cc(C)n4)CC3)C2=O)c1` ; pKd = 8.15

Briefly, pKd measured for `Cc1cc(C)nc(N2CCC3(CCCN(Cc4c[nH]c5ccc(C#N)cc45)C3=O)CC2)n1` : 7.60

###

Parameter: Ki. Scope: all listed entries.
molecular target: human orexin 2 receptors (Homo sapiens, UniProt O43614); assay: Calcium accumulation in cells (FLIPR), hOx2R; conditions: cells expressing human orexin 2 receptor; inhibition of orexin A-induced calcium accumulation; Cheng and Prusoff correction
Record the result as a number with its unit.

Solved cases below.
{"columns": ["structure", "assay_metric", "result"],
 "data": [
  ["Cc1cc(C)nc(N2CCC3(CCCN(Cc4n[nH]cc4-c4ccccc4)C3=O)CC2)n1", "Ki", "3.3 nM"],
  ["COc1nccc(N2CCC3(CCCN(Cc4c[nH]c5ccccc45)C3=O)CC2)n1", "Ki", "630 nM"],
  ["Cc1cc(C)nc(N2CCC3(CCCN(Cc4cccc(-c5ncccn5)c4)C3=O)CC2)n1", "Ki", "92 nM"]
]}

Query compound follows.
What the record says about `COCc1cccc(-c2ocnc2CN2CCCC3(CCN(c4nc(C)cc(C)n4)CC3)C2=O)c1` : Ki is 18 nM

###

molecular target: UniProt O43613; test: Calcium accumulation in cells (FLIPR), hOx1R
Reported pKi values are given for each entry in this list.
Value format note: pKi is -log10 of concentration (mol/L); just state the number.

Below: 6 molecules and their reported pKi.
{"columns": ["molecule", "pKi"],
 "data": [
  ["COc1cc(OC)nc(N2CCC3(CCCN(Cc4c[nH]c5ccccc45)C3=O)CC2)n1 [Example 88]", 6.39],
  ["N#Cc1ccnc(N2CCC3(CCCN(Cc4cccc(-c5ncccn5)c4)C3=O)CC2)c1 [Example 35]", 6.06],
  ["Cc1cccc(N2CCC3(CCCN(Cc4c[nH]c5ccccc45)C3=O)CC2)n1 [Example 9]", 5.81],
  ["Cc1cc(C)nc(N2CCC3(CCCN(Cc4cccc(-c5noc(C)n5)c4)C3=O)CC2)n1 [Example 22]", 6.12],
  ["Cc1cncc(N2CCC3(CCCC(=O)N3Cc3cccc4[nH]ccc34)CC2)n1 [Example 41]", 5.78],
  ["Cc1nc(N2CCC3(CCCN(Cc4c[nH]c5ccccc45)C3=O)CC2)ncc1F [Example 102]", 5.97]
]}

The recorded pKi for entry O=C1N(Cc2c[nH]c3ccccc23)CCCC12CCN(c1ccnc(Cl)n1)CC2 [Example 48] equals 5.50

What the record says about N#Cc1cccc(N2CCC3(CCCC(=O)N3Cc3cccc4[nH]ccc34)CC2)n1 [Example 92] : pKi is 5.59

###

biological target: human orexin 2 receptors (Homo sapiens, UniProt O43614); assay: Calcium accumulation in cells (FLIPR), hOx2R; settings: cells expressing human orexin 2 receptor; inhibition of orexin A-induced calcium accumulation; Cheng and Prusoff correction
List of Ki values.
API: value field is a number in nM; no unit string.

Observe how each entry below is paired with its result.
{"columns": ["structure", "Ki [nM]"],
 "data": [
  ["Cc1cncc(N2CCC3(CCCN(Cc4c[nH]c5ccccc45)C3=O)CC2)c1", 156],
  ["Cc1nnc(N2CCC3(CCCN(Cc4c[nH]c5ccccc45)C3=O)CC2)s1", 664],
  ["COCc1cccc(-c2oc(C)nc2CN2CCCC3(CCN(c4nc(C)cc(C)n4)CC3)C2=O)c1", 1.2]
]}

Per the records, this compound ( `Cc1cccc(N2CCC3(CCCN(Cc4c[nH]c5ccccc45)C3=O)CC2)n1` ) has Ki equal to 54

// `Cc1ccnc(N2CCC3(CCCN(Cc4ccccc4-n4nccn4)C3=O)CC2)n1` : Ki value = 509

For `COc1cc(N2CCC3(CCCN(Cc4c[nH]c5ccccc45)C3=O)CC2)ncn1` the compound record lists Ki as 351

// Ki value for `Cc1cc(N2CCC3(CCCN(Cc4c[nH]c5ccccc45)C3=O)CC2)cc(C)n1` : 1280

The recorded Ki for entry `COc1cncc(N2CCC3(CCCN(Cc4c[nH]c5ccccc45)C3=O)CC2)c1` equals 117

###

Molecular target: human orexin 1 receptors (Homo sapiens)
Sequence (O43613 1-425): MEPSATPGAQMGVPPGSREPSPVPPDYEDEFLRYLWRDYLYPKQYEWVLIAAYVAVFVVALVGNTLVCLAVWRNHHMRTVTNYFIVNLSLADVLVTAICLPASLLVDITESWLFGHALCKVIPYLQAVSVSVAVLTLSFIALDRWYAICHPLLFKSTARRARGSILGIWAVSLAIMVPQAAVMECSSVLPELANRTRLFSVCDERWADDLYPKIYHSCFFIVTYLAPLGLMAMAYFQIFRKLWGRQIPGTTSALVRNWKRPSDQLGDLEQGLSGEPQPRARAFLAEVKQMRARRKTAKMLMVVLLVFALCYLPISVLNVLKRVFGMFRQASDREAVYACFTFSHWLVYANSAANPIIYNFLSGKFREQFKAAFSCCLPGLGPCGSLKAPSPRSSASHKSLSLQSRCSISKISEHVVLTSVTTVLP
Experiment: Calcium accumulation in cells (FLIPR), hOx1R
Settings: read-out: FLIPR hOx1R % inhibition value
In this section, each of the compounds is paired with its reported inhibition at 10 µM.
Please give a number only; it is taken to be in %.

Entry under test: `Cc1cc(N2CCC3(CCCN(Cc4c[nH]c5ccccc45)C3=O)CC2)nc(C)n1` . Its inhibition at 10 µM was 31

# compound `Cc1cnc(N2CCC3(CCCN(Cc4c[nH]c5ccccc45)C3=O)CC2)cn1` ; its inhibition at 10 µM = 16

The compound listed as `COc1cccc(-c2nn(C)nc2CN2CCCC3(CCN(c4nc(C)cc(C)n4)CC3)C2=O)n1` shows inhibition at 10 µM equal to 29
